- System: NCI-H23
- measurementProtocol: NCI tumour cell line growth inhibition, 48 h
Active and inactive are the calls of the source. Rule as the data show it: active = GI50 up to about 1.1 µM and inactive = higher.
Outcome codes: true (1) (active), false (0) (inactive)

compound: CCOC1NC(=O)Oc2ccccc21 (stereo not given)
assignedClass: false (0)

compound: C/C(=N\NC(=S)N1CCC(N2CCCCC2)CC1)c1ccccn1
assignedClass: false (0)

compound: COC1/C=C/OC2(C)Oc3c(C)c(O)c4c(c3C2=O)C(=O)C=C(NC(=O)/C(C)=C\C=C\C(C)C(OC=O)C(C)C(O)C(C)C(OC(C)=O)C1C)C4=O (stereo not given)
assignedClass: false (0)

compound: N#CCCN(CCC#N)c1ccc(C(=N/c2ccc(F)cc2)/N=N/c2ccccc2)cc1
assignedClass: false (0)

compound: COc1ccc2c(c1OC)C(=O)O[C@@H]2[C@H]1c2cc3c(cc2CCN1C)OCO3
assignedClass: false (0)

compound: COc1ccc(CN[C@H]2CCc3cc(OC)c(OC)c(OC)c3-c3ccc(SC)c(=O)cc32)c(OC)c1OC
assignedClass: true (1)

compound: CC(=O)OC1C2CCC1C1C2C2(Cl)C(Cl)=C(Cl)C1(Cl)C2(Cl)Cl (stereo not given)
assignedClass: false (0)

compound: Cc1c2ccccc2c(C)n2c1nc1ccccc12
assignedClass: false (0)

compound: COC(=O)c1cc2c3c(ccc2[nH]1)N(C(=O)c1cc2cc(OC)c(OC)c(OC)c2[nH]1)CC3CCl (stereo not given)
assignedClass: false (0)

compound: CC1C(O)=C(O)c2ccccc2N1O (stereo not given)
assignedClass: false (0)

compound: CCOC(=O)Nc1ccc(S(=O)(=O)Nc2ccc(Br)cc2)cc1
assignedClass: false (0)

compound: c1ccc(CN[C@]23C4C5CC6C7C5C2C7[C@@](NCc2ccccc2)(C64)N3Cc2ccccc2)cc1 (stereo not given in full)
assignedClass: false (0)

compound: O=C(Cn1ccnc1[N+](=O)[O-])NCc1ccc(F)cc1
assignedClass: false (0)

compound: O=C(CC(=O)Nc1cccc(Cl)c1)NNCC(=O)Nc1nnc(-c2ccccc2)s1
assignedClass: false (0)

compound: O=C(/C=C/c1ccc(Cl)c(Cl)c1)c1ccc(F)cc1
assignedClass: false (0)

compound: CN(C(=O)c1cc2c(s1)sc1c(=O)n(C)c3ccccc3c12)c1ccccc1
assignedClass: false (0)

compound: Cc1cc2c(cc1C)[n+]([O-])c(C(=O)CC(=O)C(=O)Nc1c(C(C)C)cccc1C(C)C)c(C)[n+]2[O-]
assignedClass: false (0)

compound: C[C@]12CCC(=O)C=C1CC[C@@H]1[C@@H]2CC[C@]2(C)C(=O)NC(=O)C[C@@H]12
assignedClass: false (0)

compound: Nc1ccc(-c2nc3cc(F)ccc3s2)cc1CO
assignedClass: true (1)

compound: O=C1CC(C(OCc2ccccc2)C(OCc2ccccc2)C(COCc2ccccc2)OCc2ccccc2)CC(=O)N1 (stereo not given)
assignedClass: false (0)

* * *

- System: DU-145
- measurementProtocol: NCI tumour cell line growth inhibition, 48 h
Activity calls are given as the source filed them. No stated cut-off is given here; in the data, active = GI50 up to about 1.1 µM and inactive = higher.
measurementType: GI50

molecule: CCN(CC)C1CCC(C2c3cc4c(cc3OC(N3CCOCC3)C2C)OCO4)CC1 (centres undefined)
testTarget: DU-145
measurementType: GI50
result: 18.5 µM (inactive)

molecule: Brc1ccc(-c2cn3ccncc3n2)cc1
testTarget: DU-145
measurementType: GI50
result: > 100 µM (inactive)

molecule: CC(=O)OCC(OC(C)=O)C(OC(C)=O)C(OC(C)=O)C(C=NN(C(C)=O)S(=O)(=O)c1ccc(/C=C2\NC(=O)N(C)C2=O)cc1)OC(C)=O (centres undefined)
testTarget: DU-145
measurementType: GI50
result: 29.5 µM (inactive)

molecule: COC(=O)C1=C(C)NC(=O)N2[C@@H](CCOCc3ccccc3)CC[C@@H]12
testTarget: DU-145
measurementType: GI50
result: > 50 µM (inactive)

molecule: Nc1onc2c1Cc1c(noc1N)-c1ccccc1-2
testTarget: DU-145
measurementType: GI50
result: > 100 µM (inactive)

molecule: CC(=O)O[C@H]1CC[C@@]2(C)[C@@H](CC[C@@H]3[C@@H]2CC(=O)[C@@]2(C)[C@H]3C[C@@H]3CC(C)=CC(=O)[C@@H]32)C1
testTarget: DU-145
measurementType: GI50
result: 53.8 µM (inactive)

molecule: O=S(=O)(O)c1c(/N=N/c2c(O)ccc3ccccc23)ccc2ccccc12
testTarget: DU-145
measurementType: GI50
result: > 100 µM (inactive)

molecule: COc1ccc(COC(=O)NNC(=O)C2CSC(c3ccccc3)N2C(C)=O)cc1 (centres undefined)
testTarget: DU-145
measurementType: GI50
result: > 100 µM (inactive)

molecule: Cc1cccc(-c2nc(-c3cnccn3)n(Cc3ccccc3)n2)c1
testTarget: DU-145
measurementType: GI50
result: > 100 µM (inactive)

* * *

- System: DMS-114
- measurementProtocol: NCI tumour cell line growth inhibition, 48 h
Activity calls are given as the source filed them. No stated cut-off is given here; in the data, active = GI50 up to about 1.1 µM and inactive = higher.
Outcome codes: T (active), F (inactive)

molecule: COC(=O)c1cc(CNCCc2c[nH]c3ccccc23)on1
assignedClass: F
--
molecule: Clc1ccc(-n2nnc(C3=NCCCN3)c2-c2ccccc2)cc1
assignedClass: F
--
molecule: [N-]=[N+]=CC(=O)C1(C(=O)C=[N+]=[N-])CC1
assignedClass: F
--
molecule: CCCCCCCCCCCC1CCCC(C)N1 (stereo unspecified)
assignedClass: F
--
molecule: Clc1ccc(CCN2CCOCC2)c(Cl)c1
assignedClass: F
--
molecule: Cn1c2c([N+](=O)[O-])[se]nc2c(=O)n1-c1ccc([N+](=O)[O-])cc1
assignedClass: T

* * *

- System: SF-268
- measurementProtocol: NCI tumour cell line growth inhibition, 48 h
Calls of active or inactive are those of the source. No stated cut-off is given here; in the data, active = GI50 up to about 1.1 µM and inactive = higher.
Outcome codes: Y = active, N = inactive

molecule: O=C1NC2(CCCCCC2)C2CCCCCCC12O (stereo unspecified)
testTarget: SF-268
assignedClass: N

molecule: O=c1[nH]c(=O)n(C2CC(O)C(CO)O2)cc1OCCCc1ccccc1 (stereo unspecified)
testTarget: SF-268
assignedClass: N

molecule: O=C1C(Cl)N(c2c(Cl)cccc2Cl)C1c1c[nH]c2ccccc12 (stereo unspecified)
testTarget: SF-268
assignedClass: N

molecule: Cc1cc(C)nc(NS(=O)(=O)c2ccc(Nc3c4ccccc4nc4c(C(=O)N5CCN(CCOS(C)(=O)=O)CC5)ccc(Cl)c34)cc2)n1
testTarget: SF-268
assignedClass: N

molecule: CCOC(=O)c1sc2nc(SC)nc3c2c1NCN3C1CC1
testTarget: SF-268
assignedClass: N

molecule: CC(=O)C1C(c2ccccc2)C2(C)OC(=O)C(C#N)C12C (stereo unspecified)
testTarget: SF-268
assignedClass: N

molecule: CC(C)=CC1C[C@H](C2CC=C3C2(C)CCC2[C@@]3(C)C(=O)CC3[C@]2(C)C=CC(=O)[C@]3(C)CO)CO1 (stereo partly specified)
testTarget: SF-268
assignedClass: N

molecule: C/N=C/N(C)c1c2ccccc2nc2ccccc12
testTarget: SF-268
assignedClass: N

molecule: COc1cc2c3c(n(C)c(=O)c2cc1OC)-c1cc2c(cc1/C3=C\CCCI)OCO2
testTarget: SF-268
assignedClass: Y

molecule: c1ccc2c(c1)c1c(n2CCOCCN2CCCCC2)CCCC1
testTarget: SF-268
assignedClass: N

molecule: Clc1ccc(CCN2CCOCC2)c(Cl)c1
testTarget: SF-268
assignedClass: N

molecule: COCC(=O)OC1CCn2c1nc1c2C(=O)C(C)=C(NC(C)=O)C1=O (stereo unspecified)
testTarget: SF-268
assignedClass: N

molecule: O=c1c2cc([N+](=O)[O-])ccc2n2n1CCCC2
testTarget: SF-268
assignedClass: N

molecule: COc1ccc(N2C(=O)C3c4[nH]c5ccc(OC)cc5c4C4CCC(c5ccccc5)CC4C3C2=O)cc1 (stereo unspecified)
testTarget: SF-268
assignedClass: N

molecule: Cc1nc2c(=O)n(C)ncc2[nH]1
testTarget: SF-268
assignedClass: N

molecule: COc1ccc(Oc2nc(C#CC(C)(C)O)nc(Oc3ccc(OC)cc3)n2)cc1
testTarget: SF-268
assignedClass: N

molecule: CC(C)(C)OC(=O)NC(CSCc1ccc(C(=O)c2ccccc2)cc1)C(=O)O (stereo unspecified)
testTarget: SF-268
assignedClass: N

molecule: COC(=O)c1cc(CNCCc2c[nH]c3ccccc23)on1
testTarget: SF-268
assignedClass: N

molecule: CN(C)Cc1cc(/C=C/C(=O)c2ccc(Cl)c(Cl)c2)cc(CN(C)C)c1O
testTarget: SF-268
assignedClass: N

molecule: Clc1ccc(-n2nnc(C3=NCCCN3)c2-c2ccccc2)cc1
testTarget: SF-268
assignedClass: N

molecule: CC(C)C1CO[C@]2(C)CCC(=O)N12 (stereo partly specified)
testTarget: SF-268
assignedClass: N

molecule: CCOP(=O)(OCC)C1CCCCOC1=O (stereo unspecified)
testTarget: SF-268
assignedClass: N

molecule: C=CCNC(=S)N/C=C1\C(=O)Oc2ccccc2C1=O
testTarget: SF-268
assignedClass: N

molecule: C/C(CC(=O)Nc1ccc([N+](=O)[O-])cc1)=N\Nc1ccc([N+](=O)[O-])cc1[N+](=O)[O-]
testTarget: SF-268
assignedClass: N

molecule: Cn1c2c(c3ccccc31)C1CCCCC1C1C(=O)NC(=O)C21 (stereo unspecified)
testTarget: SF-268
assignedClass: N

molecule: C/C(=N\NC(N)=O)C(CN1CCCCC1)C(c1ccccc1)c1c(O)c2ccccc2oc1=O (stereo unspecified)
testTarget: SF-268
assignedClass: N
